measurement-target: rat muscle maxi-KCa channel, intracellular sites (Rattus norvegicus, UniProt Q62976)
Sequence (Q62976 whole entry): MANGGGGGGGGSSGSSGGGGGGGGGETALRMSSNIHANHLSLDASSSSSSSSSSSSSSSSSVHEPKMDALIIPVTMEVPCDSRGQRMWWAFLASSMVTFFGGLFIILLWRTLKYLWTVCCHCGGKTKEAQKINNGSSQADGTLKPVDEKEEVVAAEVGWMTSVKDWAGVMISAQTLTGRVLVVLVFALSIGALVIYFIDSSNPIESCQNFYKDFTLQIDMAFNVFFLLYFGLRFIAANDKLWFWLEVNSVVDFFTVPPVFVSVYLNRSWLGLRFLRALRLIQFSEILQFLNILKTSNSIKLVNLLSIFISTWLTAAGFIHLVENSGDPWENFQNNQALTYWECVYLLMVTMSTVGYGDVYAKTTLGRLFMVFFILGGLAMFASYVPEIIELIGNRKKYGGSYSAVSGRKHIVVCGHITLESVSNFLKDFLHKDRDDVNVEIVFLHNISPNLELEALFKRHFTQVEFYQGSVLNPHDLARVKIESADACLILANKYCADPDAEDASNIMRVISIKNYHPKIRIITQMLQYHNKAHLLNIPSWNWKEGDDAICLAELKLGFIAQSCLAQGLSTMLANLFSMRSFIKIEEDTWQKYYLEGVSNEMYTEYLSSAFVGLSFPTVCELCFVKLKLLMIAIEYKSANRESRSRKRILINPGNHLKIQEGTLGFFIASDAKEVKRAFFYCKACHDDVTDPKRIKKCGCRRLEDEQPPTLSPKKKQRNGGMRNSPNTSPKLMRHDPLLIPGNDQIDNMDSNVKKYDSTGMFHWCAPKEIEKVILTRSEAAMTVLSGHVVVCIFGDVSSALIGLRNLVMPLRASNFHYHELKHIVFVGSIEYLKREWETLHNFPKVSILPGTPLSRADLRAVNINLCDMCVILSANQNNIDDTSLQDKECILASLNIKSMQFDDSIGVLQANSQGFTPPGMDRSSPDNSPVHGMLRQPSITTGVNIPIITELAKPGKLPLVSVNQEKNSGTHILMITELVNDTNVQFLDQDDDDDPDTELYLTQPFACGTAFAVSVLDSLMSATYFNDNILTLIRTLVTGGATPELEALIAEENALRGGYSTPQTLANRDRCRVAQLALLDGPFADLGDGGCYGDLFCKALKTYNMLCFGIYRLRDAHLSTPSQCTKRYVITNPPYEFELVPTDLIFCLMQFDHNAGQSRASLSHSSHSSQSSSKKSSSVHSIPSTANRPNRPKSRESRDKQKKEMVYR
assay-overview: Ligand interaction of BP and DTX-I on single maxi-KCa channels, planar bilayer
Format: biochemical
Ends that are not written are not given here.
value-kind: Kd (nM)
Expressed in nM, but write only the number.

Exercise: Please supply the value of reported Kd for the item MAAVAVLYVLGKKRQHRKKQ [BP]
Solution: 57

----------
measurement-target: rat muscle maxi-KCa channel, internal pore (Rattus norvegicus)
Sequence (Q62976 whole entry): as the sequence (Q62976 whole entry) above
assay-overview: Single-channel block by ball peptide homologue
Format: biochemical
experimental-context: equilibrium dissociation constant B1 = b−1/b1 (BP from BBP), BP alone, unoccupied channel, kinetic ratio; +30 mV, 50 mM KCl, pH 7.4
Ends that are not written are not given here.
value-kind: Kd (nM)
Form entry: value (nM) — number only.

Exercise: Jot down Kd (rat muscle maxi-KCa channel, internal pore (Rattus norvegicus)) of MAAVAVLYVLGKKRQHRKKQ [BP] .
Solution: 7.16
